Cited source: the supplement of paper PMC6522484

Test system: HCT116
assayName: cell viability (CellTiter-Glo) relative to plate median (fraction of plate median); higher = more viable cells
conditions: 5 µM; treatment time 24 h; reporter: TCF4/Wnt
Please assign NOT MET whenever cell viability is at or above 1, and MET whenever it is below.

compound: Cc1cc(=O)oc2c(O)c(O)ccc12
category: MET

compound: CC(=O)NS(=O)(=O)c1ccc(NC(=O)c2ccccc2C(=O)O)cc1
category: MET

compound: CN[C@@H]1[C@@H](O[C@H]2O[C@H](CO)[C@@H](N)[C@H](O)[C@H]2O)OC2C[C@@H](N)[C@@H](O[C@H]3[C@H](O)[C@@H](O)[C@H](N)C[C@@H]3N)OC2[C@@H]1O (stereo partly drawn)
category: MET

compound: CC[C@H](C)[C@@H]1NC(=O)[C@H](C)NC1=O
category: NOT MET

compound: COC1C(OC(C)=O)C(C)OC(OC2C(Oc3cccc4c(OC(C)=O)c5c(=O)oc6ccc(C)c7c(=O)oc(c34)c5c67)OC(C)C(OC(C)=O)C2OC(C)=O)C1OC(C)=O (stereo not drawn) [Chartreusin-pentaacetate]
category: NOT MET
